Give CC50 for every item shown.
# System: MCF7 (Breast cancer)
# ASSAY: NCI-60 screen (SRB, 48 h)
# SETTINGS: Homo sapiens, MCF7, read-out: LC50
Respond numerically; units are µM and should not be typed.

Query block: Find the measured CC50 of "CC1(C)CC[C@]2(CO)CC[C@]3(C)C(=CC[C@@H]4[C@@]5(C)CCCNC(C)(C)[C@@H]5CC[C@]43C)[C@@H]2C1" and report it.
Result block: 22.7

Query block: Find the measured CC50 of "CC1(C)NCCC[C@]2(C)[C@H]3C=CC4=C5C[C@@](C)(CO)CC[C@]5(C)CC[C@@]4(C)[C@]3(C)CC[C@@H]12" and report it.
Result block: 46.7

Query block: Find the measured CC50 of "C[C@H]1[C@H](C)CC[C@]2(CO)CC[C@]3(C)C(=CC[C@@H]4[C@@]5(C)CCCNC(C)(C)[C@@H]5CC[C@]43C)[C@H]12" and report it.
Result block: 7.28

Query block: Find the measured CC50 of "CC1(C)CC[C@]23CC[C@]4(C)[C@H](CC[C@@H]5[C@@]6(C)CCCNC(C)(C)[C@@H]6CC[C@]54C)[C@H]2[C@H]1OC3" and report it.
Result block: 6.3

* * *

# System: TK-10 (Renal cancer)
# ASSAY: NCI-60 screen (SRB, 48 h)
# SETTINGS: Homo sapiens, TK-10, read-out: LC50
Flag rule - CC50 less than 7 µM flags 1; the remaining entries get -1.

Query block: In plain terms, does "CC1(C)CC[C@]2(CO)CC[C@]3(C)C(=CC[C@@H]4[C@@]5(C)CCCNC(C)(C)[C@@H]5CC[C@]43C)[C@@H]2C1" come in under 7 µM for CC50?
Result block: -1

Query block: In plain terms, does "C=C(C)[C@@H]1CCC=C2CC[C@]3(C)[C@H](CC[C@@H]4[C@@]5(C)CCCNC(C)(C)[C@@H]5CC[C@]43C)[C@H]21" come in under 7 µM for CC50?
Result block: 1

Query block: In plain terms, does "CC(C)=C1CCC=C2CC[C@]3(C)[C@H](CC[C@@H]4[C@@]5(C)CCCNC(C)(C)[C@@H]5CC[C@]43C)[C@H]21" come in under 7 µM for CC50?
Result block: 1

Query block: In plain terms, does "C=C(C)[C@@H]1CC[C@]2(C)[C@H](C=CC3=C4C[C@@](C)(CO)CC[C@]4(C)CC[C@]32C)[C@@]1(C)CCCN" come in under 7 µM for CC50?
Result block: 1

Query block: In plain terms, does "Cc1ccc(S(=O)(=O)OC[C@]23CCC(C)(C)C[C@H]2C2=CC[C@@H]4[C@@]5(C)CCCNC(C)(C)[C@@H]5CC[C@@]4(C)[C@]2(C)CC3)cc1" come in under 7 µM for CC50?
Result block: 1

* * *

Give IC (TGI) for every item shown.
# Tested on: UACC-62 (Melanoma)
# ASSAY: NCI-60 screen (SRB, 48 h)
# SETTINGS: Homo sapiens, UACC-62, 48 h, read-out: TGI
Respond numerically; units are µM and should not be typed.

Query block: Find the measured IC (TGI) of "CC1(C)NCCC[C@]2(C)[C@H]3C=CC4=C5C[C@@](C)(CO)CC[C@]5(C)CC[C@@]4(C)[C@]3(C)CC[C@@H]12" and report it.
Result block: 10.9

Query block: Find the measured IC (TGI) of C=C(C)C1CCC2(CO)CCC3(C)C(CCC4C5(C)CCCNC(C)(C)C5CCC43C)C12 (stereo not drawn) and report it.
Result block: 3.25

Query block: Find the measured IC (TGI) of "C=C(C)[C@@H]1CC[C@]2(C)[C@H](CC=C3[C@@H]4[C@@H](C)[C@H](C)CC[C@]4(CO)CC[C@]32C)[C@@]1(C)CCCN" and report it.
Result block: 12.6

* * *

# System: SF-539 (CNS cancer)
# ASSAY: NCI-60 screen (SRB, 48 h)
# SETTINGS: Homo sapiens, SF-539, 48 h, read-out: TGI
Give IC (TGI) for every item shown.
Respond numerically; units are µM and should not be typed.

Query block: Find the measured IC (TGI) of C=C(C)C1CCC2(CO)CCC3(C)C(CCC4C5(C)CCCNC(C)(C)C5CCC43C)C12 (stereo not drawn) and report it.
Result block: 3.01

Query block: Find the measured IC (TGI) of "Cc1ccc(S(=O)(=O)OC[C@]23CCC(C)(C)C[C@H]2C2=CC[C@@H]4[C@@]5(C)CCCNC(C)(C)[C@@H]5CC[C@@]4(C)[C@]2(C)CC3)cc1" and report it.
Result block: 3.15

Query block: Find the measured IC (TGI) of "C=C(C)[C@@H]1CC[C@]2(C)[C@H](CC=C3[C@@H]4[C@@H](C)[C@H](C)CC[C@]4(CO)CC[C@]32C)[C@@]1(C)CCCN" and report it.
Result block: 1.73

* * *

# Tested on: SK-MEL-5 (Melanoma)
# ASSAY: NCI-60 screen (SRB, 48 h)
# SETTINGS: Homo sapiens, SK-MEL-5, 48 h, read-out: TGI
Give IC (TGI) for every item shown.
Respond numerically; units are µM and should not be typed.

Query block: Find the measured IC (TGI) of C=C(C)[C@@H]1CC[C@]2(C)[C@H](CC=C3[C@@H]4[C@@H](C)[C@H](C)CC[C@]4(CO)CC[C@]32C)[C@@]1(C)CCCN [Compound 19] and report it.
Result block: 1.65

Query block: Find the measured IC (TGI) of C=C(C)[C@@H]1CCC=C2CC[C@]3(C)[C@H](CC[C@@H]4[C@@]5(C)CCCNC(C)(C)[C@@H]5CC[C@]43C)[C@H]21 [Compound 8] and report it.
Result block: 3.14

Query block: Find the measured IC (TGI) of C=C(C)[C@@H]1CC[C@]2(C)[C@H](C=CC3=C4C[C@@](C)(CO)CC[C@]4(C)CC[C@]32C)[C@@]1(C)CCCN [Compound 20] and report it.
Result block: 3.19

* * *

# System: OVCAR-8 (Ovarian cancer)
# ASSAY: NCI-60 screen (SRB, 48 h)
# SETTINGS: Homo sapiens, OVCAR-8, read-out: LC50
READOUT LABEL: CC50

Query block: Find the measured CC50 of CC1(C)NCCC[C@]2(C)[C@H]3C=CC4=C5C[C@@](C)(CO)CC[C@]5(C)CC[C@@]4(C)[C@]3(C)CC[C@@H]12 [Compound 6, azepano-glycyrrhetol-diene] and report it.
Result block: 30.8 µM

Query block: Find the measured CC50 of C=C(C)[C@@H]1CC[C@]2(C)[C@H](CC=C3[C@@H]4[C@@H](C)[C@H](C)CC[C@]4(CO)CC[C@]32C)[C@@]1(C)CCCN [Compound 19] and report it.
Result block: > 50 µM

Query block: Find the measured CC50 of CC1(C)CC[C@]2(CO)CC[C@]3(C)C(=CC[C@@H]4[C@@]5(C)CCCNC(C)(C)[C@@H]5CC[C@]43C)[C@@H]2C1 [Compound 3, azepanoerythrodiol] and report it.
Result block: 54.1 µM

Query block: Find the measured CC50 of C[C@H]1[C@H](C)CC[C@]2(CO)CC[C@]3(C)C(=CC[C@@H]4[C@@]5(C)CCCNC(C)(C)[C@@H]5CC[C@]43C)[C@H]12 [Compound 4, azepanouvaol] and report it.
Result block: 6.67 µM

* * *

READOUT LABEL: GI50 (nM)
Respond numerically; units are nM and should not be typed.

Query block: # lookup: M14 (Melanoma) GI50, key = C=C(C)[C@@H]1CC[C@]2(COS(=O)(=O)c3ccc(C)cc3)CC[C@]3(C)[C@@H](CC[C@@H]4[C@@]5(C)CCCNC(C)(C)[C@@H]5CC[C@]43C)[C@@H]12 [Compound 12]
Result block: 1830

Query block: # lookup: M14 (Melanoma) GI50, key = C=C(C)[C@@H]1CC[C@]2(C)[C@H](C=CC3=C4C[C@@](C)(CO)CC[C@]4(C)CC[C@]32C)[C@@]1(C)CCCN [Compound 20]
Result block: 1690

Query block: # lookup: M14 (Melanoma) GI50, key = C=C(C)[C@@H]1CC[C@]2(C)[C@H](CC=C3[C@@H]4[C@@H](C)[C@H](C)CC[C@]4(CO)CC[C@]32C)[C@@]1(C)CCCN [Compound 19]
Result block: 850

Query block: # lookup: M14 (Melanoma) GI50, key = Cc1ccc(S(=O)(=O)OC[C@@]2(C)CC[C@]3(C)CC[C@]4(C)C(=C3C2)C=C[C@@H]2[C@@]3(C)CCCNC(C)(C)[C@@H]3CC[C@]24C)cc1 [Compound 16]
Result block: 1800

Query block: # lookup: M14 (Melanoma) GI50, key = C[C@H]1[C@H](C)CC[C@]2(CO)CC[C@]3(C)C(=CC[C@@H]4[C@@]5(C)CCCNC(C)(C)[C@@H]5CC[C@]43C)[C@H]12 [Compound 4, azepanouvaol]
Result block: 1610
